Recorded values, source patent US6531477B1.

Provide the recorded melting point for the entries that follow.

Query: Form field: reported melting point of CC(C)c1[nH]n(-c2c(Cl)cccc2Cl)c2nc(Cc3ccc(CC(=O)O)cc3)nc(=O)c1-2 [Example 123]
Reply: 212 to 214 °C

Query: Record request: melting point value, item CCc1nn(-c2c(Cl)cccc2Cl)c2nc(Cc3ccc(OC)cc3)[nH]c(=O)c12 [Example 176]
Reply: 220 to 222 °C

Query: Can you share its melting point? I mean this compound: CSc1nn(-c2c(Cl)cc(Cl)cc2Cl)c2nc(Cc3cccc([N+](=O)[O-])c3)[nH]c(=O)c12 [Example 7]
Reply: 243 to 255 °C

Query: GET /values?readout=melting point&item= CCc1nn(-c2ccccc2F)c2nc(Cc3ccc(N)cc3)[nH]c(=O)c12 [Example 157]
Reply: 231 to 233 °C

----------
Provide the recorded melting point for the entries that follow.

Query: Can you share its melting point? I mean this compound: CC(C)c1nn(-c2c(Cl)cc(Cl)cc2Cl)c2nc(Cc3ccc(N)c(O)c3)[nH]c(=O)c12 [Example 55]
Reply: 210 to 217 °C (dec.)

Query: Bench note: what melting point did Cc1cccc(Cl)c1-n1[nH]c(C(C)C)c2c(=O)nc(Cc3ccc(N)cc3)nc1-2 [Example 127] show?
Reply: 206 to 207 °C

Query: Entry CCc1nn(-c2c(Cl)cc(Br)cc2Cl)c2nc(Cc3cccc(OC)c3)[nH]c(=O)c12 [Example 174] : reported melting point = ?
Reply: 232 to 233 °C

Query: Fill in: melting point of CCc1nn(-c2c(Cl)cc(C(=O)O)cc2Cl)c2nc(Cc3cccc(O)c3)[nH]c(=O)c12 [Example 198] is ___
Reply: 280 to 282 °C

Query: Which melting point is reported for this compound? CCc1nn(-c2c(Cl)cc(C(=O)NC(C)(C)C)cc2Cl)c2nc(Cc3cccc(OC)c3)[nH]c(=O)c12 [Example 238]
Reply: 222 to 224 °C

Query: Entry CCc1nn(-c2c(C)cc(Cl)cc2Cl)c2nc(Cc3ccc(OC)cc3)[nH]c(=O)c12 [Example 187] has what melting point?
Reply: 245 to 246 °C

Query: Requested read-out: melting point. Entry: CCc1nn(-c2ccccc2Br)c2nc(Cc3cccc(O)c3)[nH]c(=O)c12 [Example 153]
Reply: 199 to 201 °C

Query: Which melting point reading was recorded for the compound CCc1nn(-c2c(C)cccc2Cl)c2nc(Cc3ccc(O)cc3)[nH]c(=O)c12 [Example 184] ?
Reply: 255 to 256 °C

Query: Given the entry CCc1nn(-c2c(Cl)cc(Cl)cc2Cl)c2nc(Cc3c[nH]c4ccccc34)[nH]c(=O)c12 [Example 18] , report its measured melting point.
Reply: 296 to 299 °C

Query: Look up melting point for this compound: CC(C)c1nn(-c2c(Cl)cc(Cl)cc2Cl)c2nc(Cc3ccc(N)cc3)[nH]c(=O)c12 [Example 52]
Reply: 223 to 225 °C

Query: Please give the measured melting point for this compound: CCc1nn(-c2ccccc2F)c2nc(Cc3cccc(O)c3)[nH]c(=O)c12 [Example 155]
Reply: 235 to 237 °C

Query: Item CCc1nn(-c2c(Cl)cc(C(=O)NC)cc2Cl)c2nc(Cc3ccc(OC)cc3)[nH]c(=O)c12 [Example 201] has what recorded melting point?
Reply: 278 to 280 °C

Query: Record request: melting point value, item CCc1nn(-c2cc(C(F)(F)F)ccc2Cl)c2nc(Cc3cccc(O)c3)[nH]c(=O)c12 [Example 227]
Reply: 227 to 229 °C

Query: # query: melting point of entry CCNC(=O)c1cc(Cl)c(-n2nc(CC)c3c(=O)[nH]c(Cc4cccc(OC)c4)nc32)c(Cl)c1 [Example 236]
Reply: 226 to 228 °C

Query: Fill in the blank: the reported melting point of COc1ccc(Cc2nc3c(c(SC)nn3-c3c(C)cccc3Cl)c(=O)[nH]2)cc1 [Example 186] is ____.
Reply: 233 to 235 °C

Query: Look up melting point for this compound: Cc1cccc(Cl)c1-n1nc(C(C)C)c2c(=O)[nH]c(Cc3ccc(N)cc3)nc21 [Example 199]
Reply: 205 to 206 °C
